experiment-description: Safety, tolerability and pharmacokinetics of (Z)-Endoxifen in healthy female volunteers (Protocol AG-1001-AU-001)
Assay type: in vivo, human
test-context: female, human, serum, oral; 1 mg, 2 mg and 4 mg; read-out: mean half-life (t1/2) by dose level
readout-name: half-life

The molecule listed as CCC(=C(c1ccc(O)cc1)c1ccc(OCCNC)cc1)c1ccccc1 [(Z)-endoxifen, 4-hydroxy-N-desmethyl-tamoxifen] has a reported half-life of 2520 to 3180 min
